- statedConditions: buffer; pH 7.4; 200.0 µM
measuredEndpoint: solubility kinetic (µg/mL)
Hi! Could you send only the number? It should be in µg/mL, unit omitted.

                   compound  readoutunits  observedresult
0  COC(=O)c1cccnc1Oc1ccccc1         µg/mL            26.5

# solubility kinetic lookup, item O=C(c1ccc(F)cc1)N1CCC(c2ccccc2)C1 (stereo not given)
39.8

Name the reported solubility kinetic value associated with the compound Cc1nccn1CC1CCc2c(c3ccccc3n2C)C1=O.Cl (stereo not given)
47.7

Which solubility kinetic value is on record for `Cc1cc(NC(=O)CC(C)C)c(=O)n(Cc2cccc(F)c2)c1` ?
43.7

Please give the measured solubility kinetic for this compound: `CC1CCN(C2=NC(=O)/C(=C/c3cccc(O)c3)S2)CC1`
2.3
